Measured NADPH Oxidation, Reaction A, listed per entry for reference.
Molecular target: bovine TrxR (Bos taurus, UniProt O62768)
Construct: purchased American Diagnostica
Sequence (O62768 1-499): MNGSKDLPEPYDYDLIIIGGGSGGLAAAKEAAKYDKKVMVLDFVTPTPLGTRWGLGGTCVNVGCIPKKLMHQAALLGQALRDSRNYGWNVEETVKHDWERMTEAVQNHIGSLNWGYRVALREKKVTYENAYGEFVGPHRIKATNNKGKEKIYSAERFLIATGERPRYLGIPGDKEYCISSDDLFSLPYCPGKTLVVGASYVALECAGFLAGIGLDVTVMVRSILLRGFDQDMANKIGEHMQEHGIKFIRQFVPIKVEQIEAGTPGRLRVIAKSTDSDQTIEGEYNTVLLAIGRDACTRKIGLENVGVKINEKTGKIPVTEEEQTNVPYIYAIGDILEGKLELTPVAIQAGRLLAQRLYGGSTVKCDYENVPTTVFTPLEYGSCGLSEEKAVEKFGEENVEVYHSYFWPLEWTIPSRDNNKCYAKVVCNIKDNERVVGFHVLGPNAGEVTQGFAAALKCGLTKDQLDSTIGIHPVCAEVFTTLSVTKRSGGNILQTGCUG
Test: TrxR NADPH oxidation assay without Trx (Reaction A)
Format: biochemical
Details: TrxR alone + NADPH, no Trx; disulfide 0.5 mM

Solved entries:
| Compound | NADPH Oxidation, Reaction A |
| --- | --- |
| NC(CCSSCCS(=O)(=O)O)C(=O)O (stereo not drawn) [MSSH, mesna-homocysteine disulfide] | 0.0 ± 0.03 nmol/min/mL |
| N[C@@H](CCC(=O)N[C@@H](CSSCCS(=O)(=O)O)C(=O)NCC(=O)O)C(=O)O [MSSG, mesna-glutathione disulfide] | 0.3 ± 0.02 nmol/min/mL |
| O=S(=O)([O-])CCSSCCS(=O)(=O)[O-].[Na+].[Na+] | 0.3 ± 0.01 nmol/min/mL |
| NC(CSSCCS(=O)(=O)O)C(=O)NCC(=O)O (stereo not drawn) [MSSCG, mesna-cysteinyl glycine disulfide] | 0.2 ± 0.04 nmol/min/mL |
| NC(CSSCCS(=O)(=O)O)C(=O)O (stereo not drawn) [MSSC, mesna-cysteine disulfide] | 0.2 ± 0.03 nmol/min/mL |

Shifting focus to the compound that follows.
Give the measured NADPH Oxidation, Reaction A for NC(CSSCCS(=O)(=O)O)C(=O)NC(CCC(=O)O)C(=O)O (stereo not drawn) [MSSCE, mesna-cysteinyl glutamate disulfide] 0.3 ± 0.02 nmol/min/mL
